Cited source for all entries: paper PMC9747611

- test: Plasma pharmacokinetics of baxdrostat and CIN-107-M, multiple ascending dose phase 1 study
- Format: in vivo, human
- condition_label: human, plasma, po, 2.5 mg, 2.5 mg oral once daily, low-salt diet, day 10, mean ± SD; read-out: Vss/F
experimental_readout: Vd/F (L)
Please give a number only; it is taken to be in L.

response.value for CCC(=O)N[C@@H]1CCCc2c(-c3ccc4c(c3)CCC(=O)N4C)cncc21 (field: Vd/F) = 135

* * *

- test: Plasma pharmacokinetics of baxdrostat and CIN-107-M, multiple ascending dose phase 1 study
- Assay type: in vivo, human
- condition_label: human, plasma, po, 2.5 mg, 2.5 mg oral once daily, normal-salt diet, day 1, mean ± SD, n=6; read-out: Cmax,D1
experimental_readout: Cmax (ng/mL)
Please respond with the number in ng/mL and leave the unit unwritten.

Field Cmax (entry CCC(=O)N[C@@H]1CCCc2c(-c3ccc4c(c3)CCC(=O)N4C)cncc21 [baxdrostat] ) reads 26.2

* * *

- test: Plasma pharmacokinetics of baxdrostat and CIN-107-M, multiple ascending dose phase 1 study
- Format: in vivo, human
- condition_label: human, plasma, po, 5 mg, 5.0 mg oral once daily, low-salt diet, day 10; read-out: Tmax,D10, median (min, max)
experimental_readout: Tmax
Show the value, then the unit it is measured in.

Lab note: CCC(=O)N[C@@H]1CCCc2c(-c3ccc4c(c3)CCC(=O)N4C)cncc21 [baxdrostat] gave Tmax of 3 h

* * *

- test: Plasma pharmacokinetics of baxdrostat and CIN-107-M, multiple ascending dose phase 1 study
- Type: in vivo, human
- condition_label: human, plasma, po, 2.5 mg, 2.5 mg oral once daily, low-salt diet, day 10; read-out: Tmax,D10, median (min, max)
experimental_readout: Tmax (h)
Write it as a number; the unit h goes unstated.

Record CCC(=O)N[C@@H]1CCCc2c(-c3ccc4c(c3)CCC(=O)N4C)cncc21 , field Tmax: 2

* * *

- test: Plasma pharmacokinetics of baxdrostat and CIN-107-M, multiple ascending dose phase 1 study
- Type: in vivo, human
- condition_label: human, plasma, po, 2.5 mg, 2.5 mg oral once daily, normal-salt diet, day 10, mean ± SD, n=5; read-out: Vss/F
experimental_readout: Vd/F

Vd/F for CCC(=O)N[C@@H]1CCCc2c(-c3ccc4c(c3)CCC(=O)N4C)cncc21 [baxdrostat] is 150 L

* * *

- test: Plasma pharmacokinetics of baxdrostat and CIN-107-M, multiple ascending dose phase 1 study
- Assay type: in vivo, human
- condition_label: human, plasma, po, 2.5 mg, 2.5 mg oral once daily, low-salt diet, day 10, mean ± SD; read-out: t1/2 (converted)
experimental_readout: half-life (h)
A number alone suffices; assume h.

GET /value?item= CCC(=O)N[C@@H]1CCCc2c(-c3ccc4c(c3)CCC(=O)N4C)cncc21 &field=half-life returns 28.4

* * *

- test: Plasma pharmacokinetics of baxdrostat and CIN-107-M, multiple ascending dose phase 1 study
- Assay type: in vivo, human
- condition_label: human, plasma, po, 1.5 mg, 1.5 mg oral once daily, normal-salt diet, day 1, mean ± SD, n=9; read-out: Cmax,D1
experimental_readout: Cmax (ng/mL)
Kindly provide the numeric value in ng/mL only, without the unit symbol.

The value of Cmax measured for the compound CCC(=O)N[C@@H]1CCCc2c(-c3ccc4c(c3)CCC(=O)N4C)cncc21 turned out to be 14

* * *

- test: Plasma pharmacokinetics of baxdrostat and CIN-107-M, multiple ascending dose phase 1 study
- Assay type: in vivo, human
- condition_label: human, plasma, po, 2.5 mg, 2.5 mg oral once daily, low-salt diet, day 10, mean ± SD; read-out: Cmax,D10
experimental_readout: Cmax (ng/mL)
Write the value in ng/mL as a bare number.

Lookup result for CCC(=O)N[C@@H]1CCCc2c(-c3ccc4c(c3)CCC(=O)N4C)cncc21 ; measured Cmax: 54
